Test system: LOX IMVI melanoma
TEST_DESCRIPTION: NCI-60 one-dose screen, 48 h
TEST_CONDITIONS: 10 µM unless noted
This is part of a sample that, as a whole, favours compounds with a hit. Of some 83,000 tested, about 20% had one in any assay. Active and inactive are the calls of the source. The calls were made as follows: active = growth percent below 10; inactive = the rest.
Pick one and only one: true for active, false for inactive

What classification did CCO/C=N/C1=C(C#N)C(c2ccc(Cl)cc2)c2sc3c(C)cccc3c2O1 (stereo unspecified) end up with in this test?
false

What classification did Cc1ccc(NC(=O)CNc2cc(C(N)=O)cc(F)c2C)c(Cl)c1 end up with in this test?
false

What classification did NC(N)=Nc1ccc(Oc2cccc(NC(N)=Nc3ccc(Cl)c(C(F)(F)F)c3)c2)cn1 end up with in this test?
true

What classification did COc1ccccc1-n1cc(C#N)c(N)c1C(=O)c1ccc(Cl)cc1 end up with in this test?
false

What classification did CNc1ncc2cc(-c3ccc(-c4ncccc4F)cc3Cl)c(=O)n(CC3OCC(N)CO3)c2n1 (stereo unspecified) end up with in this test?
false

What classification did O=C1C(c2ccccc2)=C(N2CCc3ccccc32)OC1(Cl)Cl end up with in this test?
false
